# study-target: T1, BMP-12 (UniProt Q7Z4P5 322-450, limits assumed)
# T1 construct: also called BMP12/GDF7
# T1 sequence (looked up): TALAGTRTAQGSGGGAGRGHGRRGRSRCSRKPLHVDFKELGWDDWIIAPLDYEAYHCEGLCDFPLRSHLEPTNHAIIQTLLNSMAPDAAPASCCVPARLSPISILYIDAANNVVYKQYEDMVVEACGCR
# method-summary: peptide resin, filter plate; load 12: 50 mM Tris, 0.1 M NaCl, 20% MPD, pH 8.0
No end group written: not given here.
observation-type: Flow-through conc (mg/mL)

INSERT INTO results (binder, observation_type, units_of_measure, recorded_measurement) VALUES
  ('Ac-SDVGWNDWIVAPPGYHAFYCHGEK [BMP2 N-trun peptide 750]', 'Flow-through conc', 'mg/mL', 0.364),
  ('Ac-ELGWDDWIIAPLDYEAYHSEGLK [BMP12 N-trun_1S peptide 749]', 'Flow-through conc', 'mg/mL', 0.404),
  ('Ac-VAPPGYHAFYSHGEK [BMP2 N-trunc_2 peptide 745]', 'Flow-through conc', 'mg/mL', 0.435),
  ('Ac-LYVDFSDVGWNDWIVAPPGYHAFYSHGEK [BMP2 Full peptide 747]', 'Flow-through conc', 'mg/mL', 0.438);

This collection of values is drawn from patent US7754689B2.
